All values here come from PubChem BioAssay AID2060894.

system: K12877-001-R-J1-PDC complex spheroid viability; assay: Anticancer human tumor K12877-001-R-J1-PDC patient-derived lung adenocarcinoma cell line growth inhibition [RAS]; conditions: second compound 0.003 µM; first compound 1 µM; active = viability on the fitted dose curve at most 10% of control; inactive = the rest;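 note: tumour cells co-cultured with HUVEC and mesenchymal stem cells in spheroids; spheroids exposed to agents for one week before readout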
Response enum: active, inactive

// below: answered molecules
CC(C)NCC(C(=O)N1CCN(c2ncnc3c2C(C)CC3O)CC1)c1ccc(Cl)cc1 (centres undefined) + CCn1c(-c2cc(N3CCN(C)CC3)cnc2C(C)OC)c2c3cc(ccc31)-c1csc(n1)CC(NC(=O)C1CC1C)C(=O)N1CCCC(N1)C(=O)OCC(C)(C)C2
inactive
Nc1ccn(C2OC(CO)C(O)C2(F)F)c(=O)n1 (centres undefined) + CCn1c(-c2cc(N3CCN(C)CC3)cnc2C(C)OC)c2c3cc(ccc31)-c1csc(n1)CC(NC(=O)C1CC1C)C(=O)N1CCCC(N1)C(=O)OCC(C)(C)C2
active
CC(Nc1ccc2c(c1)OCCn1cc(N3C(=O)OCC3C(F)F)nc1-2)C(N)=O (centres undefined) + CCn1c(-c2cc(N3CCN(C)CC3)cnc2C(C)OC)c2c3cc(ccc31)-c1csc(n1)CC(NC(=O)C1CC1C)C(=O)N1CCCC(N1)C(=O)OCC(C)(C)C2
inactive

Would you kindly look at the next entry?
Ask: For this molecule, state the assay outcome: CC(=O)OC12COC1CC(O)C1(C)C(=O)C(O)C3=C(C)C(OC(=O)C(O)C(NC(=O)OC(C)(C)C)c4ccccc4)CC(O)(C(OC(=O)c4ccccc4)C21)C3(C)C (centres undefined) + CCn1c(-c2cccnc2C(C)OC)c2c3cc(ccc31)N1CCOC(CC(NC(=O)C(C(C)C)N(C)C(=O)C3(F)CCN(C(=O)C#CC(C)(C)N(C)C)CC3)C(=O)N3CCCC(N3)C(=O)OCC(C)(C)C2)C1
Reply: active
